protocol-details: NCI Yeast Anticancer Drug Screen. Data for the cln2 rad14 strain (AID 165);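 note: 0% = growth equal to vehicle treated cultures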
run-parameters: S. cerevisiae cln2 rad14 strain, at 50.0 µM, stronger effect = higher value
About 79,000 compounds went through this panel and 15% of them were active in at least one assay; those are over-represented in the sample as a whole.
experimental-readout: growth inhibition (%)

[
  {
    "compound": "CC1(C)C[C@@H]2C1CCC1(C)CC2(O)CC[C@H]1O (stereo partly specified)",
    "experimental-readout": "growth inhibition",
    "meas-value": 14.4
  },
  {
    "compound": "COC(=O)C1(CC(=O)CC(=O)CC2(C(=O)OC)NC(=S)NC(=O)C2C#N)NC(=S)NC(=O)C1C#N (stereo unspecified)",
    "experimental-readout": "growth inhibition",
    "meas-value": 4.05
  },
  {
    "compound": "CC1=C(O)c2cc3c(cc2C(=O)C1=O)OCO3",
    "experimental-readout": "growth inhibition",
    "meas-value": -15.6
  },
  {
    "compound": "O=C(O)COc1cc(-c2ccccc2)nc2ccc(F)cc12",
    "experimental-readout": "growth inhibition",
    "meas-value": 7.25
  },
  {
    "compound": "C[n+]1cccc(/C=C/C(=O)Nc2ccccc2)c1",
    "experimental-readout": "growth inhibition",
    "meas-value": 5.95
  },
  {
    "compound": "c1ccc(N=C(c2ccccc2)c2ccccc2)cc1",
    "experimental-readout": "growth inhibition",
    "meas-value": -6.65
  },
  {
    "compound": "O=C(Oc1ccccc1)Oc1c(Cl)cc([N+](=O)[O-])cc1[N+](=O)[O-]",
    "experimental-readout": "growth inhibition",
    "meas-value": 10.9
  },
  {
    "compound": "N#Cc1c2c(c(=O)n3c1[nH]c1ccccc13)CCC2",
    "experimental-readout": "growth inhibition",
    "meas-value": -3.25
  },
  {
    "compound": "CC(=O)OC12c3ccccc3C(c3ccccc31)C1C(=O)N(c3ccccc3O)C(=O)C12 (stereo unspecified)",
    "experimental-readout": "growth inhibition",
    "meas-value": 6.2
  },
  {
    "compound": "CC(C)(C)c1c(C#N)nnc2cc(-c3ccccc3)nn12",
    "experimental-readout": "growth inhibition",
    "meas-value": 25.1
  },
  {
    "compound": "O=C(c1ccc(Cl)cc1)c1ccc(OCCSCCCCCCCCCCSCCOc2ccc(C(=O)c3ccc(Cl)cc3)cc2)cc1",
    "experimental-readout": "growth inhibition",
    "meas-value": -9.4
  }
]

----------
protocol-details: NCI Yeast Anticancer Drug Screen. Data for the cln2 rad14 strain (AID 165);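 note: 0% = growth equal to vehicle treated cultures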
run-parameters: S. cerevisiae cln2 rad14 strain, at 50.0 µM, stronger effect = higher value
About 79,000 compounds went through this panel and 15% of them were active in at least one assay; those are over-represented in the sample as a whole. The source made the active and inactive calls. Rule as the data show it: active = growth inhibition above about 70%; inactive = the rest.
In this section we review reported growth inhibition values for a set of compounds.

[
  {
    "compound": "Cn1cnc2c(=S)nc[nH]c21",
    "growth inhibition": "-9.9% (inactive)"
  },
  {
    "compound": "COC(=O)c1ccc(/C=C2\\N=C(C)OC2=O)cc1",
    "growth inhibition": "12.2% (inactive)"
  },
  {
    "compound": "Cc1cc(O)c(C(c2ccc(C#N)cc2)c2c(O)cc(C)[nH]c2=O)c(=O)[nH]1",
    "growth inhibition": "-6.2% (inactive)"
  },
  {
    "compound": "CSc1ccc(NC(=O)C(Cl)Cl)cc1",
    "growth inhibition": "13% (inactive)"
  },
  {
    "compound": "C/C(CC/C(C)=N/O)=N\\O",
    "growth inhibition": "-9.45% (inactive)"
  },
  {
    "compound": "CC(C)(C)c1ccc(O)c(CNCCO)c1",
    "growth inhibition": "-28.1% (inactive)"
  },
  {
    "compound": "CC(=O)Cc1nc(N)nc(Nc2ccc(Cl)c(Cl)c2)n1",
    "growth inhibition": "-11.3% (inactive)"
  },
  {
    "compound": "O=C1CCSC(=S)N1c1ccccc1",
    "growth inhibition": "-32.2% (inactive)"
  },
  {
    "compound": "C/C=C/C(=O)N1C(=O)OC[C@@H]1c1ccccc1",
    "growth inhibition": "46.6% (inactive)"
  },
  {
    "compound": "CCN(CC)CCn1[nH]c2c3ccc(=O)cc3sc3c(NCCN)ccc1c32",
    "growth inhibition": "-5.55% (inactive)"
  },
  {
    "compound": "O=C(CCc1ccc(O)c(O)c1)NCCc1cc(O)cc(OCc2ccccc2)c1",
    "growth inhibition": "-19.1% (inactive)"
  },
  {
    "compound": "BrCc1cccc2cccc(CBr)c12",
    "growth inhibition": "-10.5% (inactive)"
  },
  {
    "compound": "O=C1OCC/C1=C\\c1cccc([N+](=O)[O-])c1",
    "growth inhibition": "-42.7% (inactive)"
  },
  {
    "compound": "CCN(CC)CCN=C1Nc2ccccc2N(O)N1",
    "growth inhibition": "-23.3% (inactive)"
  },
  {
    "compound": "CC(C)C1=CC2=C(C(=O)C1=O)C13CCCC(C)(C)C1CC2OC3=O (configuration not stated)",
    "growth inhibition": "-12.3% (inactive)"
  },
  {
    "compound": "CC(=O)Nc1ccc(N=C/C=C/c2ccccc2)cc1",
    "growth inhibition": "2.05% (inactive)"
  },
  {
    "compound": "COc1ccccc1NC(=O)C1=C(C)NC(C)=C(C(=O)Nc2ccccc2OC)C1c1ccccc1Cl",
    "growth inhibition": "17.9% (inactive)"
  },
  {
    "compound": "CN(C)S(=O)(=O)Cc1ccccc1",
    "growth inhibition": "-73.5% (inactive)"
  },
  {
    "compound": "COC(=O)N/N=C(/CC1(O)C(=O)Nc2ccc([N+](=O)[O-])cc21)c1ccccc1 (configuration not stated)",
    "growth inhibition": "-3.2% (inactive)"
  },
  {
    "compound": "O=[N+]([O-])c1ncc(N(CCO)CCO)s1",
    "growth inhibition": "3.65% (inactive)"
  },
  {
    "compound": "CC(C)=NNC(=O)COCC(=O)NN=C(C)C",
    "growth inhibition": "-84.5% (inactive)"
  },
  {
    "compound": "COC(=O)/C=C/c1ccc(OP(=O)(O)O)c(OC)c1",
    "growth inhibition": "-20.6% (inactive)"
  },
  {
    "compound": "O=C1NC(=S)S/C1=C/C=C/c1ccccc1[N+](=O)[O-]",
    "growth inhibition": "-16.6% (inactive)"
  },
  {
    "compound": "O=C(NCc1ccc(Cl)c(Cl)c1)Nc1ccccc1F",
    "growth inhibition": "9.65% (inactive)"
  },
  {
    "compound": "Nc1c2ccccc2nc2c(C(=O)Nc3ccc(S(N)(=O)=O)cc3)cccc12",
    "growth inhibition": "19% (inactive)"
  },
  {
    "compound": "CC1(C)COC(=O)OC1",
    "growth inhibition": "12.8% (inactive)"
  },
  {
    "compound": "O=C(NNC(=O)OCc1ccccc1)OCc1ccccc1",
    "growth inhibition": "-34.2% (inactive)"
  },
  {
    "compound": "CCOC(=O)CNC(=O)C(CCSCc1ccccc1)NC(=O)OCc1ccccc1 (configuration not stated)",
    "growth inhibition": "28.6% (inactive)"
  },
  {
    "compound": "COc1ccc(CCCC2C(=O)CC(C)OC2=O)cc1OC (configuration not stated)",
    "growth inhibition": "-25.8% (inactive)"
  },
  {
    "compound": "Cc1ccc(C(=O)c2ccccc2Cc2ccc3ccccc3c2)cc1",
    "growth inhibition": "1.35% (inactive)"
  },
  {
    "compound": "CCOC(=O)/C=C/C(=O)N1CCN(C(=O)/C=C/C(=O)OCC)C(C)C1 (configuration not stated)",
    "growth inhibition": "4.25% (inactive)"
  },
  {
    "compound": "Cc1ccc(OC(=O)Nc2ccc(C(=O)O)c(O)c2)cc1",
    "growth inhibition": "-6.75% (inactive)"
  },
  {
    "compound": "c1ccc2c[n+]3cc4ccccc4cc3cc2c1",
    "growth inhibition": "31.3% (inactive)"
  },
  {
    "compound": "CC(=O)Nc1cc2c3c(c1)CCCN3CCC2",
    "growth inhibition": "25.9% (inactive)"
  },
  {
    "compound": "COC1=CC(=C(\\C#N)c2ccc(Cl)cc2)/C=CC/1=N/O",
    "growth inhibition": "-7.25% (inactive)"
  },
  {
    "compound": "CC(C)OP(=O)(OC(C)C)c1ccc2c(c1)OCCOCCOCCOCCO2",
    "growth inhibition": "4.2% (inactive)"
  },
  {
    "compound": "CC1C(c2ccccc2)=C(c2ccccc2)C(c2ccccc2)=C(c2ccccc2)C1c1ccccc1 (configuration not stated)",
    "growth inhibition": "-5.55% (inactive)"
  }
]

Provenance of the data: PubChem BioAssay (NCI)
